- measurement_target: human aromatase (Homo sapiens)
- Construct: containing protein (2 mg) from human placental microsomes; from tissue; host or cells: human placenta (microsomes)
- assay_summary: UPLC-based aromatase inhibition assay
- Format: biochemical
- test_settings: in vitro; human placental microsomes, testosterone substrate; read-out: aromatase inhibition IC50
experimental_readout: IC50
Your answer should be a number followed by the unit of measure.

[in] Requested read-out: IC50. Entry: CC(=O)O[C@]1(C(C)=O)CC[C@H]2[C@@H]3CCC4=CC(=O)CC[C@@H]4[C@H]3CC[C@@]21C
[out] 740 nM

---

- measurement_target: human aromatase (Homo sapiens, UniProt P11511)
- Construct: containing protein (2 mg) from human placental microsomes; from tissue; host or cells: human placenta (microsomes)
- Sequence (P11511 1-503): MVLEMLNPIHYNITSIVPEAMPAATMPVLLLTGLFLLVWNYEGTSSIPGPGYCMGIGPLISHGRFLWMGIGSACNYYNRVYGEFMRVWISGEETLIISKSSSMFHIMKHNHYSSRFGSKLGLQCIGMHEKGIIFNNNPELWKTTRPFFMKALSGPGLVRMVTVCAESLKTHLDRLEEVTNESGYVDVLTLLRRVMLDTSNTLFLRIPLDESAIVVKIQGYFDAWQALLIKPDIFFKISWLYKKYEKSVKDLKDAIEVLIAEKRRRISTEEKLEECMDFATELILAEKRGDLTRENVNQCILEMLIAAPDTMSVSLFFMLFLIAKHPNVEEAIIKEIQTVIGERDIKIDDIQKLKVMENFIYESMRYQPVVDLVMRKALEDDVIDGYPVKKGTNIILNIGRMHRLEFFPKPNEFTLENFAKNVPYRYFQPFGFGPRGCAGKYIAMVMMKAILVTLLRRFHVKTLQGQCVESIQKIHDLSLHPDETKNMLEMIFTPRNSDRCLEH
- assay_summary: UPLC-based aromatase inhibition assay
- Assay type: biochemical
experimental_readout: IC50 (nM)
Reply with just the number (in nM).

[in] Any idea what its IC50 is? The compound is CC(=O)O[C@]1(C(C)=O)CC[C@H]2[C@@H]3CCC4=CC(=O)CC[C@]4(O)[C@H]3[C@@H](O)C[C@@]21C
[out] 827
